Assay: Solubility of compound in PBS at pH 7.4
Assay type: physicochemical
MEASUREMENT_TYPE: solubility (µM)

[
  {
    "SMILES_STRUCTURE": "COCc1nnc(N2C[C@@H]3C[C@]3(c3ccc(F)cc3Cl)C2)n1-c1ccc(OC)nc1",
    "ASSAY_RESULT": 420
  }
]

###

Assay: Half-life in Beagle dog at 2 mg/kg, po measured for 24 hrs by LC-MS/MS analysis
Format: ADME, organism-based, Canis lupus familiaris
Settings: in vivo
MEASUREMENT_TYPE: half-life (h)

[
  {
    "SMILES_STRUCTURE": "COCc1nnc(N2C[C@@H]3C[C@]3(c3ccc(F)cc3Cl)C2)n1-c1ccc(OC)nc1",
    "MEASUREMENT_TYPE": "half-life",
    "ASSAY_RESULT": 4.64
  }
]

###

Test: AUC (0 to 24 hrs) in nude mouse at 4 mg/kg, po by LC-MS/MS analysis
Format: ADME, organism-based
Parameters: time < 24 hr, dose 4 mg/kg, route oral
Conditions: in vivo
MEASUREMENT_TYPE: AUC(0-t) at 24 h (ng·h/mL)

[
  {
    "SMILES_STRUCTURE": "COCc1nnc(N2C[C@@H]3C[C@]3(c3ccc(F)cc3Cl)C2)n1-c1ccc(OC)nc1",
    "UNIT_DESCRIPTOR": "ng·h/mL",
    "ASSAY_RESULT": 548
  }
]

###

Assay: Tmax in Sprague-Dawley rat at 30 mg/kg, po measured for 24 hrs by LC-MS/MS analysis
Assay type: ADME, organism-based
Settings: in vivo
MEASUREMENT_TYPE: Tmax (min)

[
  {
    "SMILES_STRUCTURE": "COCc1nnc(N2C[C@@H]3C[C@]3(c3ccc(F)cc3Cl)C2)n1-c1ccc(OC)nc1",
    "MEASUREMENT_TYPE": "Tmax",
    "ASSAY_RESULT": 37.8
  }
]

###

Assay: AUC (0 to 24 hrs) in Sprague-Dawley rat at 150 mg/kg, po by LC-MS/MS analysis
Format: ADME, organism-based
Parameters: time < 24 hr, dose 150 mg/kg, route oral
Settings: in vivo
MEASUREMENT_TYPE: AUC(0-t) at 24 h (ng·h/mL)

[
  {
    "SMILES_STRUCTURE": "COCc1nnc(N2C[C@@H]3C[C@]3(c3ccc(F)cc3Cl)C2)n1-c1ccc(OC)nc1",
    "ASSAY_RESULT": 57200
  }
]

###

Assay: AUC (0 to 24 hrs) in Beagle dog at 2 mg/kg, po by LC-MS/MS analysis
Type: ADME, organism-based, Canis lupus familiaris
Design: time < 24 hr, dose 2 mg/kg, route oral
Conditions: in vivo

[
  {
    "SMILES_STRUCTURE": "COCc1nnc(N2C[C@@H]3C[C@]3(c3ccc(F)cc3Cl)C2)n1-c1ccc(OC)nc1",
    "AUC(0-t) at 24 h / ng·h/mL": 3830
  }
]

###

Listed here are compounds together with their documented AUC(0-t) at 24 h.
Assay: AUC (0 to 24 hrs) in Sprague-Dawley rat at 2 mg/kg, po by LC-MS/MS analysis
Format: ADME, organism-based
Design: time < 24 hr, dose 2 mg/kg, route oral
Settings: in vivo
MEASUREMENT_TYPE: AUC(0-t) at 24 h

[
  {
    "COMPOUND": "COCc1nnc(N2CCC(c3ccc(F)cc3Cl)CC2)n1-c1ccc(OC)nc1",
    "MEASUREMENT_TYPE": "AUC(0-t) at 24 h",
    "ASSAY_RESULT": "767 ng·h/mL"
  },
  {
    "COMPOUND": "CCOCc1nnc(N2C[C@@H]3C[C@]3(c3ccc(F)cc3Cl)C2)n1-c1ccc(OC)nc1",
    "MEASUREMENT_TYPE": "AUC(0-t) at 24 h",
    "ASSAY_RESULT": "1020 ng·h/mL"
  },
  {
    "COMPOUND": "COCc1nnc(N2CCC(c3ccc(F)cc3Cl)C2)n1-c1ccc(OC)nc1 (stereo not given)",
    "MEASUREMENT_TYPE": "AUC(0-t) at 24 h",
    "ASSAY_RESULT": "478 ng·h/mL"
  },
  {
    "COMPOUND": "COCc1nnc(N2C[C@@H]3C[C@]3(c3cccc(F)c3Cl)C2)n1-c1ccc(OC)nc1",
    "MEASUREMENT_TYPE": "AUC(0-t) at 24 h",
    "ASSAY_RESULT": "34 ng·h/mL"
  },
  {
    "COMPOUND": "COCc1nnc(N2C[C@@H]3C[C@]3(c3ccc(F)cc3Cl)C2)n1-c1ccc(OC)nc1",
    "MEASUREMENT_TYPE": "AUC(0-t) at 24 h",
    "ASSAY_RESULT": "1680 ng·h/mL"
  }
]

###

Molecular target: Vasopressin V1b receptor (Homo sapiens, UniProt P47901)
Sequence (P47901 whole entry): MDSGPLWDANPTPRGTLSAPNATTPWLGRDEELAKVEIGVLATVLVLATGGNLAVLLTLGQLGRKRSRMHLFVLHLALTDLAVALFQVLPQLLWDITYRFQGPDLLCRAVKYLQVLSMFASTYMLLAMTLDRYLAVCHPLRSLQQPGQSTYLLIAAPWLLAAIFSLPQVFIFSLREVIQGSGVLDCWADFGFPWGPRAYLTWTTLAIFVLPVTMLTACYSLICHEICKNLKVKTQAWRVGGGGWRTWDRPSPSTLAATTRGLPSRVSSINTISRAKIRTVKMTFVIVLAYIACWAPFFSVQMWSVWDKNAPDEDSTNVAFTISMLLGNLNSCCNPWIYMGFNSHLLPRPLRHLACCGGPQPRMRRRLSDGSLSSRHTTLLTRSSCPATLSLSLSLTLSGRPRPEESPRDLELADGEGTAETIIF
Test: Antagonist activity at human vasopressin V1B receptor expressed in HEK293 cells assessed as decrease in vasopressin-stimulated calcium flux measured after 10 mins by Fluo-4 dye based microplate reader based assay

[
  {
    "SMILES_STRUCTURE": "COc1ccc(-n2c(CC#N)nnc2N2C[C@@H]3C[C@]3(c3ccc(F)cc3Cl)C2)cn1",
    "IC50 / µM": 44.4
  }
]

###

Target: Cytochrome P450 2C9 (Homo sapiens)
Sequence (P11712 whole entry): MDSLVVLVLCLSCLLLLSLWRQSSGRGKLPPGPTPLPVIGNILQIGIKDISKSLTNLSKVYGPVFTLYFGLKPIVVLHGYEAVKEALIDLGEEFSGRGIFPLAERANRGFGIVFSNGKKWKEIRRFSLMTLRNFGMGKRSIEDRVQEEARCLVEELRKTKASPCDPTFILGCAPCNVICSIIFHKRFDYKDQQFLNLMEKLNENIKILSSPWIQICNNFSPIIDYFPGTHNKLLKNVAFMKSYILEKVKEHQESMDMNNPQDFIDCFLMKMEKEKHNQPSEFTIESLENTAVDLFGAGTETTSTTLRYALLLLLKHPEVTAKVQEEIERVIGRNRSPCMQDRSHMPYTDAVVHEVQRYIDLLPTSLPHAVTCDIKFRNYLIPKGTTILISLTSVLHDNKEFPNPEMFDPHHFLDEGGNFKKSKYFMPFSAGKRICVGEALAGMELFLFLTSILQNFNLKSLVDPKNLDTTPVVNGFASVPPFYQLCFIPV
Assay: Inhibition of human recombinant CYP2C9

[
  {
    "SMILES_STRUCTURE": "COCc1nnc(N2C[C@@H]3C[C@]3(c3ccc(F)cc3Cl)C2)n1-c1ccc(OC)nc1",
    "IC50": "> 30 µM"
  }
]

###

IC50 tested on Voltage-gated inwardly rectifying potassium channel KCNH2 (Homo sapiens): recorded values
Sequence (Q12809 whole entry): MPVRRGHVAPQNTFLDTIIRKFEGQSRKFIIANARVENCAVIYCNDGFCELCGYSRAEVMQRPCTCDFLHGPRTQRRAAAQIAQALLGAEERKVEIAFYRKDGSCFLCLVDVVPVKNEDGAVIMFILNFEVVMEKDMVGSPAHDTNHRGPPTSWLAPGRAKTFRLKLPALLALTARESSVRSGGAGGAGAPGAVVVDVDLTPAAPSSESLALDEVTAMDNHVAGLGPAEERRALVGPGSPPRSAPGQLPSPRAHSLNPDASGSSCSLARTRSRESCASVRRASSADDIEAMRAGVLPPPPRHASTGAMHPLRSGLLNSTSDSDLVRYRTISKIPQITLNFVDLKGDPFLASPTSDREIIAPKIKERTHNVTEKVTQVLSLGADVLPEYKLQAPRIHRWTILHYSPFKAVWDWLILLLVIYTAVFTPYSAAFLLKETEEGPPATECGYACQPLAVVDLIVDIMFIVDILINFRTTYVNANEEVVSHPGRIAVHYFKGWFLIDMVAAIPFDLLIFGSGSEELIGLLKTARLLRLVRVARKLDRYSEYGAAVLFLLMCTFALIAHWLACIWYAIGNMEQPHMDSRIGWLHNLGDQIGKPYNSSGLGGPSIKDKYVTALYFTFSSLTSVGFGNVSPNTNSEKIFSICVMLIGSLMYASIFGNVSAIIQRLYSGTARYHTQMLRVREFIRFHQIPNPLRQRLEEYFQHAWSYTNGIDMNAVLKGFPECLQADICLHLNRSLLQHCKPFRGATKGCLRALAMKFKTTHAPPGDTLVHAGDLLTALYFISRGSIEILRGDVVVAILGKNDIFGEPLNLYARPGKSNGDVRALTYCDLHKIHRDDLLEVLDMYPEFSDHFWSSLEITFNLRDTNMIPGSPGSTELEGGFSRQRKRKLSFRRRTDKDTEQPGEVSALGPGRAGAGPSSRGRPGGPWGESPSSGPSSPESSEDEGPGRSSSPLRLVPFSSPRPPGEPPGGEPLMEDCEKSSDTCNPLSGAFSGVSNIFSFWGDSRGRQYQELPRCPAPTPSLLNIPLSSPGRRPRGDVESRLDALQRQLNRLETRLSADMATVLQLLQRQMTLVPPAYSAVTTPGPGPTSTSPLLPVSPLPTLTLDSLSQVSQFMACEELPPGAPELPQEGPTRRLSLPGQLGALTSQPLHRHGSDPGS
MEASUREMENT_TYPE: IC50 (µM)

[
  {
    "SMILES_STRUCTURE": "COCc1nnc(N2C[C@@H]3C[C@]3(c3ccc(F)cc3Cl)C2)n1-c1ccc(OC)nc1",
    "UNIT_DESCRIPTOR": "µM",
    "ASSAY_RESULT": 16
  },
  {
    "SMILES_STRUCTURE": "CCOCc1nnc(N2C[C@@H]3C[C@]3(c3ccc(F)cc3Cl)C2)n1-c1ccc(OC)nc1",
    "UNIT_DESCRIPTOR": "µM",
    "ASSAY_RESULT": 6.1
  }
]

###

Target: Vasopressin V1a receptor (Homo sapiens)
Sequence (P37288 whole entry): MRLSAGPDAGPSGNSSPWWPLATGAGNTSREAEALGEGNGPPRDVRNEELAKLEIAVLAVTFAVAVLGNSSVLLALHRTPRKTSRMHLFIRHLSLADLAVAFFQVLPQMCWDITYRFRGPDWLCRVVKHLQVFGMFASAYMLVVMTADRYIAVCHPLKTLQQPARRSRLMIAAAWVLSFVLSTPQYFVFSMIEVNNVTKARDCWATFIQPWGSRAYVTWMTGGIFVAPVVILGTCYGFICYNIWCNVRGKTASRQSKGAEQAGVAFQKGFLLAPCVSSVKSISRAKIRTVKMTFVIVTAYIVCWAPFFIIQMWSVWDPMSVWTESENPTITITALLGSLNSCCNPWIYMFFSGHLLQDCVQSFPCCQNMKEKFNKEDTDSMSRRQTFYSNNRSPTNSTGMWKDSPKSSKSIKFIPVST
Assay: Antagonist activity at human vasopressin V1A receptor expressed in HEK293 cells assessed as decrease in vasopressin-stimulated calcium flux measured after 10 mins by Fluo-4 dye based microplate reader based assay

[
  {
    "SMILES_STRUCTURE": "COc1ccc(-n2c(C3CC3)nnc2N2C[C@@H]3C[C@]3(c3ccc(F)cc3Cl)C2)cn1",
    "TARGET_UNDER_TEST": "Vasopressin V1a receptor (Homo sapiens)",
    "IC50 [nM]": 11000
  },
  {
    "SMILES_STRUCTURE": "COc1ccc(-n2c(COCCF)nnc2N2C[C@@H]3C[C@]3(c3ccc(F)cc3Cl)C2)cn1",
    "TARGET_UNDER_TEST": "Vasopressin V1a receptor (Homo sapiens)",
    "IC50 [nM]": 819
  },
  {
    "SMILES_STRUCTURE": "COc1ccc(-n2c(CC#N)nnc2N2C[C@@H]3C[C@]3(c3ccc(F)cc3Cl)C2)cn1",
    "TARGET_UNDER_TEST": "Vasopressin V1a receptor (Homo sapiens)",
    "IC50 [nM]": 769
  },
  {
    "SMILES_STRUCTURE": "COCc1nnc(N2C[C@@H]3C[C@]3(c3ccc(F)cc3Cl)C2)n1-c1ccc2c(c1)OCO2",
    "TARGET_UNDER_TEST": "Vasopressin V1a receptor (Homo sapiens)",
    "IC50 [nM]": 810
  },
  {
    "SMILES_STRUCTURE": "COc1ccc(-n2c(CO[C@@H]3CCOC3)nnc2N2C[C@@H]3C[C@]3(c3ccc(F)cc3Cl)C2)cn1",
    "TARGET_UNDER_TEST": "Vasopressin V1a receptor (Homo sapiens)",
    "IC50 [nM]": 1980
  },
  {
    "SMILES_STRUCTURE": "COc1ccc(-n2c(C(F)F)nnc2N2C[C@@H]3C[C@]3(c3ccc(F)cc3Cl)C2)cn1",
    "TARGET_UNDER_TEST": "Vasopressin V1a receptor (Homo sapiens)",
    "IC50 [nM]": 1870
  },
  {
    "SMILES_STRUCTURE": "CCOCc1nnc(N2C[C@@H]3C[C@]3(c3ccc(F)cc3Cl)C2)n1-c1ccc(OC)nc1",
    "TARGET_UNDER_TEST": "Vasopressin V1a receptor (Homo sapiens)",
    "IC50 [nM]": 1760
  }
]

Provenance of the data: ChEMBL document CHEMBL4364273
